# EXPERIMENTAL SYSTEM: KDR (Homo sapiens, UniProt P35968)
# Sequence (P35968 20-1356): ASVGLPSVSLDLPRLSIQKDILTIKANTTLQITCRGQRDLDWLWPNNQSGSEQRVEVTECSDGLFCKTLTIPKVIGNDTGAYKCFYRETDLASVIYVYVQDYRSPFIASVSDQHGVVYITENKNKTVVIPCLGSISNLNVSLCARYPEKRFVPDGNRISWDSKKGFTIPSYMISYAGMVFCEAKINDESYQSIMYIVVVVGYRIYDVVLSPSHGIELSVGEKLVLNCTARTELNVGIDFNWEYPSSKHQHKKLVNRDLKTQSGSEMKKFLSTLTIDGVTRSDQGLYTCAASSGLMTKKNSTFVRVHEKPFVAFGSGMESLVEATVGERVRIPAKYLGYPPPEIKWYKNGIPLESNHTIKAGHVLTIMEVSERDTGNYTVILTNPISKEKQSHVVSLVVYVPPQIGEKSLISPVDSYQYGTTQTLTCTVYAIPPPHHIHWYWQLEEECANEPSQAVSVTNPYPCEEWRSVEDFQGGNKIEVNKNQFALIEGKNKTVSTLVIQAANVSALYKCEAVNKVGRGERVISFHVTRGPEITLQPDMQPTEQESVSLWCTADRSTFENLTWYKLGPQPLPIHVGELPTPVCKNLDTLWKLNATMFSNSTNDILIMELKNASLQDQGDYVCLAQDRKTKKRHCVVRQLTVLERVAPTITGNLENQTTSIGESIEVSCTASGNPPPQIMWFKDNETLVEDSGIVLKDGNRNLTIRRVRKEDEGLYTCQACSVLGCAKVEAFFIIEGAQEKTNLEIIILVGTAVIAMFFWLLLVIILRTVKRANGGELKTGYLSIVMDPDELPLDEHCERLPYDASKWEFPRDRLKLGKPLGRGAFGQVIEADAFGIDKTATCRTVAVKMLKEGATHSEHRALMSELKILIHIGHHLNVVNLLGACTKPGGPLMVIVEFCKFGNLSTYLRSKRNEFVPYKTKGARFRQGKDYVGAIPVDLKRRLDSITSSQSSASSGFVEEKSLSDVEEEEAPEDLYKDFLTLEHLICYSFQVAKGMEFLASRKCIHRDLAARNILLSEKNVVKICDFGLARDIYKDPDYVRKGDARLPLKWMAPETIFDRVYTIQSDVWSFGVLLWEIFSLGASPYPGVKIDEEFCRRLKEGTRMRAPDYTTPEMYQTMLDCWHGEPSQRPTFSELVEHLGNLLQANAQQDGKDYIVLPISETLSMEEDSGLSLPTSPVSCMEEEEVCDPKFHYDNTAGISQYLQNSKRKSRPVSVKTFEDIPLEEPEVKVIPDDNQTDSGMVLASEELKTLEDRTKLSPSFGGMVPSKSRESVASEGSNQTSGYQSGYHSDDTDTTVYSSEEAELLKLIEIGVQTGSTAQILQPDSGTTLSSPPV
# ASSAY NAME: Z'-LYTE kinase selectivity
# Type: biochemical
# MEASUREMENT PARAMETERS: read-out: IC50 KDR
ENDPOINT LABEL: IC50 (nM)

COc1cc(N2CCC3(CCN(C)CC3)CC2)ccc1Nc1ncc(Cl)c(Nc2ccccc2P(C)(C)=O)n1 | 260

====

# Tested on: Ba/F3 (EML4-ALK^C1156Y) cells
# ASSAY NAME: Cell proliferation (CellTiter-Glo)
# Format: cell-based
# MEASUREMENT PARAMETERS: read-out: IC50 BaF3-EML4-ALK C1156Y
ENDPOINT LABEL: IC50 (µM)

COc1cc(N2CCC(N3CCN(C)CC3)CC2)ccc1Nc1ncc(Cl)c(Nc2ccccc2P(C)(C)=O)n1 [Brigatinib, reference compound] | 0.014
